- setup-conditions: in isopropanol, 283.15 K
quantity-kind: solubility (mole fraction)
The reply should be a number, written without any unit.

Ask | Quote solubility (mole fraction) reported for O=C(Nc1ccncc1)c1cc(C(=O)Nc2ccncc2)cc(C(=O)Nc2ccncc2)c1 please.
Reply | 0.000265

----------
- setup-conditions: in acetonitrile, 313.15 K
quantity-kind: solubility (mole fraction)

Ask | # return recorded solubility (mole fraction) for input O=C(Nc1ccncc1)c1cc(C(=O)Nc2ccncc2)cc(C(=O)Nc2ccncc2)c1
Reply | 0.000146

----------
- setup-conditions: in n-hexane, 303.15 K
quantity-kind: solubility (mole fraction)
Give the figure by itself; no unit, no explanation.

Ask | Report measured solubility (mole fraction); entry is O=C(Nc1ccncc1)c1cc(C(=O)Nc2ccncc2)cc(C(=O)Nc2ccncc2)c1
Reply | 4.03e-05
